Molecular target: Human lysosome α-galactosidase (Homo sapiens, UniProt P06280)
Sequence (P06280 32-429): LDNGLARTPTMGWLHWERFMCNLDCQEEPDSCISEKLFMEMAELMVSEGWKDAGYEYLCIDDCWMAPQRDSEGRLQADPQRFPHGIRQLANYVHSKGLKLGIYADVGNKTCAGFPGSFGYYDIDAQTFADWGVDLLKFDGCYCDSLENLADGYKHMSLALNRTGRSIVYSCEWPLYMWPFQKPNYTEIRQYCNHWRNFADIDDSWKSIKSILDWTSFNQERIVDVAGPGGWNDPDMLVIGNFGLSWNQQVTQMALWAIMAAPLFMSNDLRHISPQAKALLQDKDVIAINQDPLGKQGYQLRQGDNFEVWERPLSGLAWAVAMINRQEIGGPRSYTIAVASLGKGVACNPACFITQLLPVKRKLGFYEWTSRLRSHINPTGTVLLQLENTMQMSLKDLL
Assay: In vitro enzyme inhibition
Assay type: biochemical
Conditions: concentration required to inhibit the enzyme to 50% activity; read-out: IC50
Listed here: items and their measured IC50.
endpoint.label: IC50

compound="CCCCCCCCCN1C[C@H](O)[C@@H](O)[C@@H](O)[C@H]1CO [NN-DGJ]" result="35.5 µM"
compound="CCCC(=O)O[C@H]1CN2CC[C@H](O)[C@@H]2[C@@H](O)[C@@H]1O [Celgosivir, 6-O-butanoyl-castanospermine]" result="> 1000 µM"
compound="CCCCCCCCCN1C[C@H](O)[C@@H](O)[C@H](O)[C@H]1CO [NN-DNJ]" result="765 µM"

====

Biological target: Human lysosome α-glucosidase (Homo sapiens, UniProt P10253)
Assay: In vitro enzyme inhibition
Type: biochemical
endpoint.label: IC50

compound="O[C@H]1[C@H](O)[C@@H](O)CN2CC[C@H](O)[C@H]12 [Castanospermine, castanospermine]" system_under_test="Human lysosome α-glucosidase (Homo sapiens, UniProt P10253)" result="2 µM"

====

Molecular target: Glucosyltransferase HL60 (Homo sapiens)
Construct: endogenous in cells; host or cells: HL60
Sequence (Q16739 whole entry): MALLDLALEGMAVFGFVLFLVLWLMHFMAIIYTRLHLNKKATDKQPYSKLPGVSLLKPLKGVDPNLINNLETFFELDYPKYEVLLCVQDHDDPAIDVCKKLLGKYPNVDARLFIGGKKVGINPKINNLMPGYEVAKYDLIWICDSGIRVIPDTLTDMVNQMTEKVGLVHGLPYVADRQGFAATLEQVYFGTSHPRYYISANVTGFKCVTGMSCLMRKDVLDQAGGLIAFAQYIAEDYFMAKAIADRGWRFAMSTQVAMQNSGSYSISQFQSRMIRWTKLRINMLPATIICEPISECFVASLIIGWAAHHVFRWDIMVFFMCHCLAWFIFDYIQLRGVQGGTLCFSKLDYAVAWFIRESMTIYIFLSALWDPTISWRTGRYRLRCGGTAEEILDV
Experiment: In vitro enzyme inhibition
Type: biochemical
endpoint.label: IC50

compound=O[C@H]1[C@H](O)[C@@H](O)CN2CC[C@H](O)[C@H]12 result="> 1000 µM"

====

Listed here: items and their measured IC50.
Target: Rat intestinal sucrase (Rattus norvegicus)
Construct: from tissue; host or cells: rat intestine
Sequence (P23739 whole entry): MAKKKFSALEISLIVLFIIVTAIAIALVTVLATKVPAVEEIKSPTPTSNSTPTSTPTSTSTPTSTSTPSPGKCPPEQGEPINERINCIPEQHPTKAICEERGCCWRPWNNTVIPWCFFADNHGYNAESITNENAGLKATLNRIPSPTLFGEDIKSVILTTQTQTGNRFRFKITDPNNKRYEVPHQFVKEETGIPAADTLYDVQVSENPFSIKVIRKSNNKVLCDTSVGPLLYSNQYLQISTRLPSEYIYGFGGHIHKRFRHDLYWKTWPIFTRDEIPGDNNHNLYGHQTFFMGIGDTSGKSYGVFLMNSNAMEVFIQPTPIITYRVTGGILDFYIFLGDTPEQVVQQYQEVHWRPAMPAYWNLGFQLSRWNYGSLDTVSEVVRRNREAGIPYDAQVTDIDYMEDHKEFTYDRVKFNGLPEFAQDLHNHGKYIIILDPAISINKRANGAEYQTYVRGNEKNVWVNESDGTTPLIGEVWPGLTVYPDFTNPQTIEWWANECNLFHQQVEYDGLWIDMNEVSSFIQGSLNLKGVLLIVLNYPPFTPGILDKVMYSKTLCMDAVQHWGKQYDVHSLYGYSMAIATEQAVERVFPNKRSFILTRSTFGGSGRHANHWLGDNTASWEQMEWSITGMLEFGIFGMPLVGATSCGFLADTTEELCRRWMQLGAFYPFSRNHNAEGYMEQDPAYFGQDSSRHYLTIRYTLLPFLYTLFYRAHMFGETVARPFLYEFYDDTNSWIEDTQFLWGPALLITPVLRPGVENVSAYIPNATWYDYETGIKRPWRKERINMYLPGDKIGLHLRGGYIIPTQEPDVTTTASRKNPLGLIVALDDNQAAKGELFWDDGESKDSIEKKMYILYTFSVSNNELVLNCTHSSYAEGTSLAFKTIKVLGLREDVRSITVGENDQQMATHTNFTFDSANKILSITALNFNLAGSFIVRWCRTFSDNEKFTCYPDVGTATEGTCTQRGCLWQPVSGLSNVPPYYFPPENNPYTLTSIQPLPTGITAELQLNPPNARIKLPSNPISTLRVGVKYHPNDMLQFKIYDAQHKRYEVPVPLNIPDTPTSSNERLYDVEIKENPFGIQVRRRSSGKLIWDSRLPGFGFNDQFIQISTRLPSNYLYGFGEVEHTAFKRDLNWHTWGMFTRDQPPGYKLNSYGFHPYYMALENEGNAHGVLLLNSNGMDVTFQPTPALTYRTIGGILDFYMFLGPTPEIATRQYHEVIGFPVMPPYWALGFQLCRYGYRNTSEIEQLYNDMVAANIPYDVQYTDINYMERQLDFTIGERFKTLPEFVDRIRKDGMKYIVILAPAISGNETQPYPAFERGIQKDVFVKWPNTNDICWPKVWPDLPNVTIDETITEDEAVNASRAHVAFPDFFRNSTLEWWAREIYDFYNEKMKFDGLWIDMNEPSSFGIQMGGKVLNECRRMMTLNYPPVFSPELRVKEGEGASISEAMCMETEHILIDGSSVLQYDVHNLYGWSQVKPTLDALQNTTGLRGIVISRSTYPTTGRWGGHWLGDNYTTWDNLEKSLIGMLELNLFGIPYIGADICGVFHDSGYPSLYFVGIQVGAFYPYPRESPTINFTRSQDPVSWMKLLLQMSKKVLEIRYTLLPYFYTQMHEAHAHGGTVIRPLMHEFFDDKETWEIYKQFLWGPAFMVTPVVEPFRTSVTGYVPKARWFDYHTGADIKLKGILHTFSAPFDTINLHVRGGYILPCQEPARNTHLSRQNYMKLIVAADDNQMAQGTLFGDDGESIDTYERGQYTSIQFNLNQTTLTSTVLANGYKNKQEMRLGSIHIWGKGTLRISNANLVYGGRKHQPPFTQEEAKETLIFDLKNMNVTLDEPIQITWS
Assay: In vitro enzyme inhibition, glucose release from disaccharide
Format: biochemical
Conditions: concentration required to inhibit the enzyme to 50% activity; read-out: IC50
endpoint.label: IC50 (µM)

compound=CCCC(=O)O[C@H]1CN2CC[C@H](O)[C@@H]2[C@@H](O)[C@@H]1O system_under_test="Rat intestinal sucrase (Rattus norvegicus)" value_operator== quantitative_readout=2.7
compound=CCCCN1C[C@H](O)[C@@H](O)[C@H](O)[C@H]1CO system_under_test="Rat intestinal sucrase (Rattus norvegicus)" value_operator== quantitative_readout=0.44
compound=CCCCCCCCCN1C[C@H](O)[C@@H](O)[C@@H](O)[C@H]1CO system_under_test="Rat intestinal sucrase (Rattus norvegicus)" value_operator=> quantitative_readout=1000
compound=CCCCCCCCCN1C[C@H](O)[C@@H](O)[C@H](O)[C@H]1CO system_under_test="Rat intestinal sucrase (Rattus norvegicus)" value_operator== quantitative_readout=0.74
compound=OC[C@H]1NC[C@H](O)[C@@H](O)[C@H]1O system_under_test="Rat intestinal sucrase (Rattus norvegicus)" value_operator== quantitative_readout=340
compound=CCCCN1C[C@H](O)[C@@H](O)[C@@H](O)[C@H]1CO system_under_test="Rat intestinal sucrase (Rattus norvegicus)" value_operator=> quantitative_readout=1000
